# Target or test system: CDK5/p25 (Homo sapiens, UniProt Q00535)
# Sequence (Q00535 whole entry): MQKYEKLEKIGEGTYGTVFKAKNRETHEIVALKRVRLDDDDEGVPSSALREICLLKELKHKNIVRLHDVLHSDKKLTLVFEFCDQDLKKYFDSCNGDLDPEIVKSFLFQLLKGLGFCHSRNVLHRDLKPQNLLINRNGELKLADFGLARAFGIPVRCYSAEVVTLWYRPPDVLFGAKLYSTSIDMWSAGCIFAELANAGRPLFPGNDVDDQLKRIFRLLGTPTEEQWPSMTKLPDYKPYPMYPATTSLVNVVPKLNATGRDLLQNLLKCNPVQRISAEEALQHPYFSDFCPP
# Sequence (Q15078 99-307 partner limits assumed): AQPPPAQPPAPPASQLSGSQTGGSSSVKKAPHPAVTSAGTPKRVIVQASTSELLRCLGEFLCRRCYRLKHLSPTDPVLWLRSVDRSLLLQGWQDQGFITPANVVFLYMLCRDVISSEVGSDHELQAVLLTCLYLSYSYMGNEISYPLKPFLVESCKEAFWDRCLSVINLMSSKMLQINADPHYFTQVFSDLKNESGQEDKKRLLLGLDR
# Protocol text: Biochemical assay CDK5/p25

{"Molecule": "Cc1cc(S(=O)(=O)NCCOCCOCCOCCOCCNc2cccc3c2C(=O)N(C2CCC(=O)NC2=O)C3=O)ccc1Nc1ncc(Br)c(Nc2cccc(F)c2C(N)=O)n1 (stereo not shown) [TMX-2172]", "Target or test system": "CDK5/p25 (Homo sapiens, UniProt Q00535)", "IC50 / nM": 6.8}

----------
# Target or test system: CDK4/cyclin D1 (Homo sapiens, UniProt P11802)
# Sequence (P11802 whole entry): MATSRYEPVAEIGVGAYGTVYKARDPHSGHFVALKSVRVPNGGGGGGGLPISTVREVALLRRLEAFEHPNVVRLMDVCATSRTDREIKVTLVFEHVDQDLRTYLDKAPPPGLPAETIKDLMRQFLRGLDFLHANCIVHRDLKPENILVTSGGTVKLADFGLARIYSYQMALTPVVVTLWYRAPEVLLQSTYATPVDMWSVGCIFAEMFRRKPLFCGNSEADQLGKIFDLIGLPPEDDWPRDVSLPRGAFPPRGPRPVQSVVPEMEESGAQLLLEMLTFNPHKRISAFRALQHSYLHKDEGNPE
# Sequence (P24385 whole entry partner): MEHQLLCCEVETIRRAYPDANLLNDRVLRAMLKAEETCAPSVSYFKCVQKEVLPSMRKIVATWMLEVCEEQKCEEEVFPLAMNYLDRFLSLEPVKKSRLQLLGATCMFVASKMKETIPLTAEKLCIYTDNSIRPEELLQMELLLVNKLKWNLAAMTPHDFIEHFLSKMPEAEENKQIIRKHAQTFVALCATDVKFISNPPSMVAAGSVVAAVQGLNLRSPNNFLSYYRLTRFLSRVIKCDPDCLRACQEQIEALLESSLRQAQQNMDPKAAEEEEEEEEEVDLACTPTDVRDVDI
# Protocol text: Biochemical assay CDK4/cyclin D1

{"Molecule": "Cc1cc(S(=O)(=O)NCCOCCOCCOCCOCCNc2cccc3c2C(=O)N(C2CCC(=O)NC2=O)C3=O)ccc1Nc1ncc(Br)c(Nc2cccc(F)c2C(N)=O)n1 (stereo not shown)", "IC50, µM": 7.39}

Hello, the source for this data is paper PMC7703486, in case you need it.
